Tested on: T lymphocyte cell line Jurkat E6-1
procedure.text: Cytotoxicity experiment (CCK-8, relative cell survival)
Type: cell-based
condition.context: 50 μM; 24 hours; untreated cells = 100%
Listed here are molecules together with their documented Relative cell survival rate (%).
// note: answer is a bare numeric in %

Solved cases (3 shown):
molecule | measurement.type | test.result
CCCCCCCCCCCCNC(=O)c1ccccc1C(=O)O [Compound 37] | Relative cell survival rate (%) | 92
CCCCCCCCCCCCNC(=O)c1ccccc1Nc1cccc(C)c1C [Compound 51] | Relative cell survival rate (%) | 90
CCCCCCCCCCCCNC(=O)c1ccccc1C(F)(F)F [Compound 38] | Relative cell survival rate (%) | 89

# evaluate next
Query: Quote Relative cell survival rate (%) reported for CCCCCCCCNCCCNC(=O)c1nccnc1Cl [Compound 82] please.
Result: 88

* * *

Tested on: T lymphocyte cell line Jurkat E6-1
procedure.text: Cytotoxicity experiment (CCK-8, relative cell survival)
Type: cell-based
condition.context: 10 μM; 24 hours; untreated cells = 100%
Experimental: To evaluate the cytotoxicity of the compound according to the present invention, the following experiment was conducted. The T lymphocyte cell line Jurkat E6-1, purchased from the Korean Cell Line Bank, was cultured in RPMI-1640 medium comprising 10% FBS, 100 U/mL penicillin, and 100 μg/mL streptomycin. […] Absorbance was then measured at 450 nm to determine the relative cell survival rate compared to untreated cells, as shown in Table 4. […]
measurement.type: Relative cell survival rate (%)
// note: answer is a bare numeric in %

compound | study.target | test.result
CC(C)=CCC/C(C)=C/CNC(=O)c1cccnc1N [Compound 75] | T lymphocyte cell line Jurkat E6-1 | 97
CCCCCC(=O)Nc1ccc(CNC(=O)c2ccccc2Br)cc1 [Compound 47] | T lymphocyte cell line Jurkat E6-1 | 98
CCCCCC(=O)Nc1cccc(CNC(=O)c2ccccc2Br)c1 [Compound 49] | T lymphocyte cell line Jurkat E6-1 | 98
CCCCCCCCCCCCNC(=O)c1ncccc1N [Compound 67] | T lymphocyte cell line Jurkat E6-1 | 94
CCCCCCCCCCCCNC(=O)c1ccccc1-c1ncc[nH]1 [Compound 52] | T lymphocyte cell line Jurkat E6-1 | 88

Query: Quote Relative cell survival rate (%) reported for CCCCCCCCCCC(CNCc1ccccc1Br)Cc1ccccc1Br (stereo not drawn) [Compound 44] please.
Result: 100

Query: Quote Relative cell survival rate (%) reported for CCCCCCCCCCCCNC(=O)c1ccccc1-c1ccc(C)cc1 [Compound 27] please.
Result: 109

* * *

System: T lymphocyte cell line Jurkat E6-1
procedure.text: Cytotoxicity experiment (CCK-8, relative cell survival)
Type: cell-based
condition.context: 30 μM; 24 hours; untreated cells = 100%
measurement.type: Relative cell survival rate (%)
// note: answer is a bare numeric in %

Solved cases (3 shown):
molecule | Relative cell survival rate (%)
O=C(NCCCCCCCCCCCCO)c1ccccc1Br [Compound 83] | 87
CCCCCCCCCCCCNC(=O)c1ccccc1-c1ncc[nH]1 [Compound 52] | 84
CCCCCCCCCCCCNC(=O)c1cccnc1O [Compound 70] | 124

# evaluate next
Query: Quote Relative cell survival rate (%) reported for CCCCCCCCCCCCNC(=O)c1cccnc1 [Compound 19] please.
Result: 82

* * *

Listed here are molecules together with their documented Relative cell survival rate (%).
System: T lymphocyte cell line Jurkat E6-1
procedure.text: Cytotoxicity experiment (CCK-8, relative cell survival)
Format: cell-based
condition.context: 50 μM; 24 hours; untreated cells = 100%
// note: answer is a bare numeric in %

Solved cases (3 shown):
smiles.str | measurement.type | test.result
CCCCCCCCCCCCNS(=O)(=O)c1c(C)cc(C)cc1C | Relative cell survival rate (%) | 80
CCCCCCCCCCCCNC(=O)c1ncccc1N | Relative cell survival rate (%) | 92
CCCCCCCCCCCCNC(=O)c1cnccc1N | Relative cell survival rate (%) | 88

# evaluate next
Query: Quote Relative cell survival rate (%) reported for CCCCCCCCCCCCNC(=O)c1ccncc1N please.
Result: 82

* * *

Tested on: spleen T cells
procedure.text: T cell proliferation inhibition (CFSE, FACS), CD3/CD28-activated spleen T cells
Type: cell-based, C57BL/6 mice
condition.context: Mus musculus, T-cell, 72 h; Table 2; 10 μM; 3 days; relative to CD3/CD28+DMSO; read-out: Proliferation inhibition rate (%)
Listed here are molecules together with their documented inhibition at 10 µM.
// note: answer is a bare numeric in %

Solved cases (2 shown):
smiles.str | value.unit | inhibition at 10 µM
O=C(NCCCCCCCCCCCCO)c1ccccc1Br | % | 0
CCCCCCCCCCCCNC(=O)c1ncc(F)cc1F | % | 6

Query: Quote spleen T cells inhibition at 10 µM for entry CCCCCCCCCNC(=O)/C=C/c1ccccc1Br .
Result: 15

Query: Quote spleen T cells inhibition at 10 µM for entry CCCCCCCCCCCCNC(=O)c1ccccc1-c1ncc[nH]1 .
Result: 42

Query: Quote spleen T cells inhibition at 10 µM for entry CCCCCCCCCCCCNC(=O)c1ccccc1C(=O)O .
Result: 23

Query: Quote spleen T cells inhibition at 10 µM for entry CCCCCCCCCCCCNC(=O)c1ccccc1-c1ccc(C)cc1 .
Result: 62

Query: Quote spleen T cells inhibition at 10 µM for entry CCCCCCCCCCCCNC(=O)c1c(Cl)ccnc1Cl .
Result: 16

* * *

Tested on: spleen T cells
procedure.text: T cell proliferation inhibition (CFSE, FACS), CD3/CD28-activated spleen T cells
Format: cell-based, C57BL/6 mice
condition.context: Mus musculus, T-cell, 72 h; Table 2; 50 μM; 3 days; relative to CD3/CD28+DMSO; read-out: Proliferation inhibition rate (%)
Output t for inhibition at 50 µM not less than 90%; output f otherwise.

Please review the entries below; each comes with its answer.
smiles.str | qualitative.label
CCCCCCCCCCCCNC(=O)c1ncc(F)cc1F | f
CCCCCCCCCCCCNS(=O)(=O)c1c(F)cccc1F | f
CCCCCCCCCCCCNC(=O)c1ccccc1NC | f
CCCCCCCCCCCCNC(=O)c1ccncc1N | t

Query: Assess whether reported inhibition at 50 µM for CCCCCCCCCCCCNC(=O)c1ccccc1Oc1ccccc1 sits at 90% or higher.
Result: t

Query: Assess whether reported inhibition at 50 µM for CCCCCCCCNC(=O)c1cccnc1N sits at 90% or higher.
Result: t

Query: Assess whether reported inhibition at 50 µM for CCCCCCCCCCCCNC(=O)c1ccccc1-n1cccc1 sits at 90% or higher.
Result: t

* * *

Tested on: T lymphocyte cell line Jurkat E6-1
procedure.text: Cytotoxicity experiment (CCK-8, relative cell survival)
Format: cell-based
condition.context: 30 μM; 24 hours; untreated cells = 100%
Categories are assigned from the measured Relative cell survival rate (%) using these intervals: bottom end: < 80%; midrange: ≥ 80% and < 90%; top end: ≥ 90%

Please review the entries below; each comes with its answer.
compound | study.target | qualitative.label
CCCCCCCCCCCCNS(=O)(=O)c1ccccc1Br [Compound 35] | T lymphocyte cell line Jurkat E6-1 | midrange
C=Cc1ccccc1C(=O)NCCCCCCCCCCCC [Compound 57] | T lymphocyte cell line Jurkat E6-1 | top end
CCCCCCCCCNC(=O)/C=C/c1ccccc1Br [Compound 10] | T lymphocyte cell line Jurkat E6-1 | midrange
CCCCCCCCCCCCNC(=O)Cc1ccccc1 [Compound 25] | T lymphocyte cell line Jurkat E6-1 | midrange
CCCCCCCCCCCCNC(=O)c1cccnn1 [Compound 31] | T lymphocyte cell line Jurkat E6-1 | top end

Kindly consider the entry below.
Query: GET /class?item= CCCCCCCCCCCCNC(=O)c1cccnc1Cl [Compound 13]
Result: bottom end

* * *

Test system: T lymphocyte cell line Jurkat E6-1
procedure.text: Cytotoxicity experiment (CCK-8, relative cell survival)
Type: cell-based
condition.context: 20 μM; 24 hours; untreated cells = 100%
Description: To evaluate the cytotoxicity of the compound according to the present invention, the following experiment was conducted. The T lymphocyte cell line Jurkat E6-1, purchased from the Korean Cell Line Bank, was cultured in RPMI-1640 medium comprising 10% FBS, 100 U/mL penicillin, and 100 μg/mL streptomycin. […] Absorbance was then measured at 450 nm to determine the relative cell survival rate compared to untreated cells, as shown in Table 4. […]
Assign labels as follows, please: Met for Relative cell survival rate (%) below 90%; Not met for Relative cell survival rate (%) equal to or exceeding 90%.

Query: Item CCCCCCCCCCCCNC(=O)c1ncc(F)cc1F [Compound 34] : Relative cell survival rate (%) beneath 90%, strictly?
Result: Not met

* * *

System: T lymphocyte cell line Jurkat E6-1
procedure.text: Cytotoxicity experiment (CCK-8, relative cell survival)
Type: cell-based
condition.context: 10 μM; 24 hours; untreated cells = 100%
Protocol: To evaluate the cytotoxicity of the compound according to the present invention, the following experiment was conducted. The T lymphocyte cell line Jurkat E6-1, purchased from the Korean Cell Line Bank, was cultured in RPMI-1640 medium comprising 10% FBS, 100 U/mL penicillin, and 100 μg/mL streptomycin. […] Absorbance was then measured at 450 nm to determine the relative cell survival rate compared to untreated cells, as shown in Table 4. […]
measurement.type: Relative cell survival rate (%)
// note: answer is a bare numeric in %

smiles.str | Relative cell survival rate (%)
CCCCCCCCCCCCNS(=O)(=O)c1ccccc1F | 96
CCCCCCCCCCCCNC(=O)c1c(Cl)ccnc1Cl | 120
CCCCCCCCCCCCNC(=O)c1cccc(Cl)c1N | 107

Query: Quote Relative cell survival rate (%) reported for CCCCCCCCCCCCNC(=O)c1ccccc1C(F)(F)F please.
Result: 90

Query: Quote Relative cell survival rate (%) reported for CCCCCCCCCCCCNS(=O)(=O)c1c(F)cccc1F please.
Result: 89

All values here come from patent US20250296909A1.
